- Test system: T47D (Breast Carcinoma)
- experiment: combination Emax (second highest fraction inhibited in the dose matrix, 72 h); higher = more inhibition; extreme values may be limits of the assay
The entries below are paired with their reported combination Emax.

compound	combination Emax
Cc1c2c(nn1C)CSCc1cc(n(C)n1)CSc1cc(c3ccccc3c1)OCCCc1c(C(=O)O)n(C)c3c-2c(Cl)ccc13 [AZD5991] + C=CCn1c(=O)c2cnc(Nc3ccc(N4CCN(C)CC4)cc3)nc2n1-c1cccc(C(C)(C)O)n1 [AZD1775] (first compound max 1 µM, partner max 1 µM)	0.574
CN(CCO)CC[C@H](CSc1ccccc1)Nc1ccc(S(=O)(=O)NC(=O)c2ccc(N3CCC([C@@H](O)c4ccccc4-c4ccc(Cl)cc4)CC3)cc2)cc1S(=O)(=O)C(F)(F)F [AZD4320] + C=CCn1c(=O)c2cnc(Nc3ccc(N4CCN(C)CC4)cc3)nc2n1-c1cccc(C(C)(C)O)n1 [AZD1775] (first compound max 1 µM, partner max 1 µM)	0.195
